Here, each record is paired with measured IC50 data.
# study-target: UniProt:Q15858
# method-summary: E-VIPR optical membrane potential assay with electrical stimulation
# protocol-conditions: sodium channel inhibition; read-out: Binned Activity Data (IC50)

The following compounds have reported results that may help.
compound="CC(C)S(=O)(=O)c1ccc(C(=O)N2CCC3(CC2)Oc2ccccc2-n2c(C(F)(F)F)ccc23)nc1 [Compound 881]" recorded_measurement="≤ 2000 nM"
compound="CCCOc1ccc(C(=O)N2CCC3(CC2)Oc2ccccc2-n2cccc23)cc1C#N [Compound 361]" recorded_measurement="≤ 2000 nM"
compound="Cc1cc(C(=O)N2CCC3(CC2)Oc2ccccc2-n2c(C#N)ccc23)ccc1O [Compound 76]" recorded_measurement="≤ 2000 nM"
compound="O=C(c1ccc2ncsc2c1)N1CCC2(CC1)Oc1ccccc1-n1c(C(F)(F)F)ccc12 [Compound 15]" recorded_measurement="> 5000 nM"
compound="COc1cc(C(=O)N2CCC3(CC2)Oc2cc(Cl)ccc2-n2cccc23)ccc1C(C)CO (centres unmarked) [Compound 609]" recorded_measurement="≤ 2000 nM"

Asked: Specify measured IC50 for CC(C)Oc1ccc(C(=O)N2CCC3(CC2)Oc2ccccc2-n2c3ccc2S(C)(=O)=O)c(F)c1 [Compound 70] .
Given back: ≤ 2000 nM

Asked: Specify measured IC50 for COc1cc(OC)c(C(=O)N2CCC3(CC2)Oc2ccccc2-n2cccc23)cc1CO [Compound 474] .
Given back: 2000 to 5000 nM

Asked: Specify measured IC50 for Cc1c(C(=O)N2CCC3(CC2)Oc2ccccc2-c2c3cnn2C)cnn1-c1ccc(F)cc1 [Compound 814] .
Given back: > 5000 nM

* * *

# study-target: human NaV 1.7 (Homo sapiens)
# Sequence (Q15858 whole entry): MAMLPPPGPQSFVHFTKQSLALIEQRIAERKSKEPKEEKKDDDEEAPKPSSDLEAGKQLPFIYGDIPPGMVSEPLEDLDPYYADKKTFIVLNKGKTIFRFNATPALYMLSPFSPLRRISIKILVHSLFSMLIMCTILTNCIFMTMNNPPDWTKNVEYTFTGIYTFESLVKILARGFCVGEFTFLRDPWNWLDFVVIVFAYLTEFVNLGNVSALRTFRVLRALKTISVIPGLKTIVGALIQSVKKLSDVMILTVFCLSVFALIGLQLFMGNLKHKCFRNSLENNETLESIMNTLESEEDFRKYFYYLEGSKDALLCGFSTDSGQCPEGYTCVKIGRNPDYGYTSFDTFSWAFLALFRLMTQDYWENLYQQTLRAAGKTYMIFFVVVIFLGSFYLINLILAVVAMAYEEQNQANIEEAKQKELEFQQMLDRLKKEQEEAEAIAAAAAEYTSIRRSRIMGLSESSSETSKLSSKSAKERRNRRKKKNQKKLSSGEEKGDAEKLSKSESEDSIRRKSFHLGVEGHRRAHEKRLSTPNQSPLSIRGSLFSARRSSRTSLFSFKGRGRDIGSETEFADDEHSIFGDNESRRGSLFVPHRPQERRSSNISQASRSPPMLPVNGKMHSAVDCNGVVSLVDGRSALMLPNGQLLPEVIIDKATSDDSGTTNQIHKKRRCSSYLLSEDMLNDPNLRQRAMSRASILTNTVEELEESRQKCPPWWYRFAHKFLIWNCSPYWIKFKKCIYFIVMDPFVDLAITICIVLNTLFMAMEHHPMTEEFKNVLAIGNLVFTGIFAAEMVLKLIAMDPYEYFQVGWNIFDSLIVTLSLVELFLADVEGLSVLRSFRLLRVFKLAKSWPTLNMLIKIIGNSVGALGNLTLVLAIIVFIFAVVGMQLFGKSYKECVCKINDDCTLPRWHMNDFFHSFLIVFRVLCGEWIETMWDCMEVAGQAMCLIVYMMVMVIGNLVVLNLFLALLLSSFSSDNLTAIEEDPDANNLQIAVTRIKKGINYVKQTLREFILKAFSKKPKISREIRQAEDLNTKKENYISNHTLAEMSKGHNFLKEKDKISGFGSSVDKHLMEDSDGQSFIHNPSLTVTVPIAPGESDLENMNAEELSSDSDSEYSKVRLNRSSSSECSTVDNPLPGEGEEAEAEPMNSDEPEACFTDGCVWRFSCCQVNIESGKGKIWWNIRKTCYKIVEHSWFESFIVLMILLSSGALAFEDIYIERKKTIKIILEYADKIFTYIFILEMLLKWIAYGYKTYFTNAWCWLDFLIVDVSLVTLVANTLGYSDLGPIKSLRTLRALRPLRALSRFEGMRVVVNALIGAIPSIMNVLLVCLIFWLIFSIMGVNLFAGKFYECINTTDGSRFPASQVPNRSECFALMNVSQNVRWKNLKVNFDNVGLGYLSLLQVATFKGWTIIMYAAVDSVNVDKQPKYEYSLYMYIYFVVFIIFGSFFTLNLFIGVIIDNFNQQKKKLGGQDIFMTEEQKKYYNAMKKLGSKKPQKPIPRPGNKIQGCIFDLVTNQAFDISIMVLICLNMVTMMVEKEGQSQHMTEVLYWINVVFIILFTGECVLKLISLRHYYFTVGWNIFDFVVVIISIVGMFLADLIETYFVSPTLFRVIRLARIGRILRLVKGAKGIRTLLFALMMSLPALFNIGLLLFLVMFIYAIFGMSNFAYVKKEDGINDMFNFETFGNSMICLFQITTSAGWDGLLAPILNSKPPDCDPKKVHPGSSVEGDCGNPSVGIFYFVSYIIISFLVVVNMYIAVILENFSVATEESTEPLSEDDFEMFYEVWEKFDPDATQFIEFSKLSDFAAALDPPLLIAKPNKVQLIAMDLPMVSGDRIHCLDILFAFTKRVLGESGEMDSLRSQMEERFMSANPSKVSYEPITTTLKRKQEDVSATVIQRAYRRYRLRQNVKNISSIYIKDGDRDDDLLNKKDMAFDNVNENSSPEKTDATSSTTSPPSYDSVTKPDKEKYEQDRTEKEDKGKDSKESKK
# method-summary: E-VIPR optical membrane potential assay with electrical stimulation
# protocol-conditions: sodium channel inhibition; read-out: Binned Activity Data (IC50)
pIC50: −log10 of the molar value.
value-kind: pIC50

The following molecules have reported results that may help.
chemical_smiles=CC[C@@H](C)Oc1ccc(C(=O)N2CCC3(CC2)Oc2ccccc2-n2cccc23)cc1C(F)(F)F recorded_measurement="≥ 5.70"
chemical_smiles=CC(C)S(=O)(=O)c1ccc(C(=O)N2CCC3(CC2)Oc2cc(F)ccc2-c2c3cnn2C)cc1 recorded_measurement="5.30 to 5.70"
chemical_smiles=Cc1cc(C(C)(C)O)ccc1C(=O)N1CCC2(CC1)Oc1ccccc1-c1c2cnn1C recorded_measurement="≥ 5.70"

Here's the next entry for you.
Asked: Specify measured pIC50 for `Cc1cc(C(=O)N2CCC3(CC2)Oc2ccccc2-c2c3cnn2C)ccc1OC(C)(C)C` .
Given back: ≥ 5.70

* * *

# study-target: human NaV 1.7 (Homo sapiens)
# method-summary: E-VIPR optical membrane potential assay with electrical stimulation
# protocol-conditions: sodium channel inhibition; read-out: Binned Activity Data (IC50)
value-kind: IC50

The following compounds have reported results that may help.
chemical_smiles=COc1ccc(C(=O)N2CCC3(CC2)Oc2ccccc2-c2c3cnn2C)c(O)c1 recorded_measurement="2000 to 5000 nM"
chemical_smiles=CC(C)Oc1ccc(C(=O)N2CCC3(CC2)Oc2ccccc2-n2c(C#N)ccc23)cc1CO recorded_measurement="≤ 2000 nM"
chemical_smiles=N#Cc1ccc2n1-c1ccccc1OC21CCN(C(=O)c2cccc(F)c2OC(F)F)CC1 recorded_measurement="≤ 2000 nM"
chemical_smiles=Cn1ncc2c1-c1ccccc1OC21CCN(C(=O)c2ccc(CC(C)(C)O)cc2)CC1 recorded_measurement="≤ 2000 nM"

Asked: Specify measured IC50 for `COCCOc1ccc(C(=O)N2CCC3(CC2)Oc2cc(Cl)ccc2-n2cccc23)cc1C` .
Given back: ≤ 2000 nM

Asked: Specify measured IC50 for `COc1cc(C(=O)N2CCC3(CC2)Oc2ccccc2-c2c3cnn2C)ccc1C(C)(C)CO` .
Given back: ≤ 2000 nM

Asked: Specify measured IC50 for `CCOc1ccc(C(=O)N2CCC3(CC2)Oc2ccccc2-c2c3cnn2C)c(OCC)c1C` .
Given back: ≤ 2000 nM

Asked: Specify measured IC50 for `Cn1cc(C(=O)N2CCC3(CC2)Oc2cc(Cl)ccc2-n2cccc23)ccc1=O` .
Given back: > 5000 nM

Asked: Specify measured IC50 for `CC(=O)c1ccc2n1-c1ccccc1OC21CCN(C(=O)c2ccc(C(C)(C)O)cc2)CC1` .
Given back: ≤ 2000 nM

Asked: Specify measured IC50 for `CC(C)S(=O)(=O)c1ccc(C(=O)N2CCC3(CC2)Oc2ccccc2-n2c(C(F)(F)F)ccc23)cc1` .
Given back: ≤ 2000 nM

Asked: Specify measured IC50 for `Cn1ncc2c1-c1ccccc1OC21CCN(C(=O)c2cccc3ncn(C)c23)CC1` .
Given back: 2000 to 5000 nM

Asked: Specify measured IC50 for `COc1cc(C(=O)N2CCC3(CC2)Oc2ccccc2-n2ccnc23)ccc1OC(C)C` .
Given back: ≤ 2000 nM

Asked: Specify measured IC50 for `Cc1cc(C(=O)N2CCC3(CC2)Oc2cc(Cl)ccc2-n2cccc23)ccc1C#N` .
Given back: ≤ 2000 nM

Asked: Specify measured IC50 for `Cn1ncc2c1-c1ccccc1OC21CCN(C(=O)c2ccc(C(C)(C)O)cc2)CC1` .
Given back: ≤ 2000 nM

Asked: Specify measured IC50 for `Cc1cc(C(=O)N2CCC3(CC2)Oc2ccccc2-n2c(C#N)ccc23)ccc1OC(C)(C)C(=O)O` .
Given back: 2000 to 5000 nM

Asked: Specify measured IC50 for `Cn1ncc2c1-c1ccc(Cl)cc1OC21CCN(C(=O)c2ccccc2OC(F)(F)F)CC1` .
Given back: ≤ 2000 nM
